Total Cell Count: recorded values
# Test system: HEK-293T
# assay_notes: Multiplex assay against HEK293T
# Format: toxicity, cell-based
# condition_description: human, 48 h, 10 µM, compound concentration 10 uM, replicate 1
Please reply with the number alone, leaving off any unit.

// known answers, use as guide
compound: Cc1sc2c(c1C)C(c1ccc(Cl)cc1)=N[C@H](CC(=O)OC(C)(C)C)c1nnc(C)n1-2
Total Cell Count: 641
//
compound: CCn1c(-c2nc3cc(C(=O)N4CCCC(N)C4)ccc3n2C)cc2ccccc21.Cl (stereo not drawn)
Total Cell Count: 605

Next compound, please.
Fill in the blank: the reported Total Cell Count of CSc1nc(NC2CCCC2)c([N+](=O)[O-])c(NC2CCCC2)n1 [GS-39783] is ____.
856

====

Population Fragmented Nuclei (%): recorded values
# System: Fibroblast
# assay_notes: Multiplex assay against human fibroblast
# Assay type: toxicity, cell-based
# condition_description: 48 h, 10 µM, compound concentration 10 uM, replicate 1
Value and unit, in that order.

// known answers, use as guide
compound: O=C(NCCNCC(O)COc1ccc(O)cc1)N1CCOCC1.O=C(NCCNCC(O)COc1ccc(O)cc1)N1CCOCC1.O=C(O)/C=C/C(=O)O (stereo not drawn) [XAMOTEROL FUMARATE]
endpoint_label: Population Fragmented Nuclei (%)
result: 25%
--
compound: COCCn1c(C)c(C)s/c1=N\C(=O)C1C(C)(C)C1(C)C
endpoint_label: Population Fragmented Nuclei (%)
result: 23%
--
compound: CSc1nc(NC2CCCC2)c([N+](=O)[O-])c(NC2CCCC2)n1 [GS-39783]
endpoint_label: Population Fragmented Nuclei (%)
result: 19%
--
compound: COCCCN1CCC(NC(=O)c2cc(Cl)c(N)c3c2OCC3)CC1 [PRUCALOPRIDE]
endpoint_label: Population Fragmented Nuclei (%)
result: 22%
--
compound: O=c1nc2[nH]c3ccccc3nc-2c(=O)[nH]1 [ALLOXAZINE]
endpoint_label: Population Fragmented Nuclei (%)
result: 26%

Fill in the blank: the reported Population Fragmented Nuclei (%) of O=c1ccc2ccc(OCCCCN3CCN(c4cccc5sccc45)CC3)cc2[nH]1 [BREXPIPRAZOLE] is ____.
18%

CN1CCN2c3ccccc3Cc3ccccc3C2C1.Cl (stereo not drawn) [MIANSERIN HYDROCHLORIDE] , same question.
15%

Cl.Cl.OCCOCCN1CCN(C(c2ccccc2)c2ccc(Cl)cc2)CC1 (stereo not drawn) [HYDROXYZINE HYDROCHLORIDE] , same question.
22%

====

Population Fragmented Nuclei (%): recorded values
# Tested on: U2OS
# assay_notes: Multiplex assay against U2OS
# Assay type: toxicity, cell-based
# condition_description: human, 24 h, 10 µM, compound concentration 10 uM, replicate 1
Respond numerically; units are % and should not be typed.

compound: CN1CCN2c3ccccc3Cc3ccccc3C2C1.Cl (centres undefined) [MIANSERIN HYDROCHLORIDE]
Population Fragmented Nuclei (%): 21
--
compound: O=C(O)CCC/C=C\CC1C(O)CC(O)C1/C=C/C(O)COc1cccc(Cl)c1 (centres undefined) [CLOPROSTENOL]
Population Fragmented Nuclei (%): 23
--
compound: COc1cc(C(=O)N2CC[C@@H](O)[C@@H](N)C2)cc2nc(-c3cc4ccccc4n3CC3CC3)n(C)c12.Cl
Population Fragmented Nuclei (%): 25

Fill in the blank: the reported Population Fragmented Nuclei (%) of `COCCn1c(C)c(C)s/c1=N\C(=O)C1C(C)(C)C1(C)C` is ____.
28

CC(C)(C)c1ccc(CSc2cnn(C(C)(C)C)c(=O)c2Cl)cc1 [PYRIDABEN] , same question.
22

CN1C[C@H](C(=O)N[C@]2(C)O[C@@]3(O)[C@@H]4CCCN4C(=O)[C@H](Cc4ccccc4)N3C2=O)C[C@@H]2c3cccc4[nH]cc(c34)C[C@H]21.CS(=O)(=O)O [DIHYDROERGOTAMINE MESYLATE] , same question.
18

Cl.Cl.OCCOCCN1CCN(C(c2ccccc2)c2ccc(Cl)cc2)CC1 (centres undefined) [HYDROXYZINE HYDROCHLORIDE] , same question.
23

COc1c(Nc2ccc(S(C)(=O)=O)nc2C)ncnc1OC1CCN(C(=O)OC(C)C)CC1 [ADP-597] , same question.
30

`CN1CCN(c2ccc(Nc3c4ccccc4nc4ccccc34)cc2)CC1.Cl.Cl.O` , same question.
46

`C[C@H](NC(=O)CNC(=O)c1cccc(Cl)c1)c1ccccc1` , same question.
24

`C[C@@H]1CC(=O)Nc2cccc(-c3ccc4c(c3)c(-c3cnn(C)c3)nn4C)c2N1` , same question.
24

Nc1nc(CC(=O)Nc2ccc(CCNC[C@H](O)c3ccccc3)cc2)cs1 [MIRABEGRON] , same question.
17

`COc1cc(OC2CCN(C(C)=O)CC2)ccc1C(=O)N1CCC(N2C(=O)OCc3ccccc32)CC1` , same question.
21

`Cc1nn(C)c2nc(NNC(=O)Nc3cc(Cl)nc(Cl)c3)cc(C(C)C)c12` , same question.
19

Cc1cc(NC(=O)NCCN2CCC(O)(Cc3ccccc3)CC2)c2ccccc2n1 [PALOSURAN] , same question.
26

COc1cc2nc(N3CCN(C(=O)c4ccco4)CC3)nc(N)c2cc1OC.Cl [PRAZOSIN HYDROCHLORIDE] , same question.
23

CCCCCCNC(=O)Nc1ccc(S(=O)(=O)Nc2ccc(CCNC[C@H](O)COc3ccc(O)cc3)cc2)cc1 [L-755507] , same question.
25
